# Tested on: K4 kissing-loop RNA reporter
# test-protocol: apparent KD of K4 kissing-loop reporter; higher = weaker reporter binding
# test-conditions: Eterna round: R107; input ligand: tryptophan 2.4 mM
Would you mind telling me the reported apparent KD of K4 kissing-loop reporter of each entry?
Numbers only; they are read as nM.

Need apparent KD of K4 kissing-loop reporter, item AGCGAUGUUUUCUCUAAGAGUGAUGUUUUUCGAGGACCGGUACGGCCGCCACUCGAAUAAAGAGUGUGGUAGUGAGCUGUUGACU [qqmullin]
278

Next entry: UUAAUAAUUCAAGGAUAUGUUUUCUAUUUCGAGUGAUGUUCGGAAUUAAUAAAUUUAAAAGAUUAUACAGAAGGUGAUAAAUAGU [Cynwulf-mod#2]
81.1

Thanks! And UUAGAGAUCUCAGGAUAUCAGUGAUGUUGUAAUCCAGAUCUGAGAUAGAAUUCUAUCUCAGAUCAAUGAGAAGGGAGAUCUCAUU [AK4.2 Exc FMN B] ?
591

----------
# Tested on: MS2 coat protein
# test-protocol: apparent KD of MS2 coat protein; designed switch direction (-1 OFF switch, 1 ON switch): 1; higher = weaker reporter binding
# test-conditions: input ligand: microRNA oligo, concentration not stated
Class key for apparent KD of MS2 coat protein values: band 1 (below 40 nM), band 2 (40 nM to below 100 nM), band 3 (100 nM or more)

Band for the recorded apparent KD of MS2 coat protein of UGGUACAUGGGAGGAUAUCAUGUAGAAACAUGAGGAUCACCCAUGUAGAUGGCCGGUAACCGGGAUGAGAAGGCCCAUGUACCU [JL SSNG1 3.64] (Eterna round: R96, puzzle: Same State NG 2) ?
band 1

# iterate: AAUCGUUUAAUAGGAUAUCGCUAUACAUGAGGAUCACCCAUGUUUACCACGCUGGUUUUUCGUACCGAGAAGGAUUCUGAUGAU [JL JR sub007 mod 8] (Eterna round: R96, puzzle: Same State NG 2)
band 1

Next record, please: UCGGGCGUACUUGCUGACAUGAGGAUCACCCAUGUAAUUGGGAAGGAUAUGGUUCCGUUUCGGUUCCAGAAGGUCCUGGGUGCU [salish99_SSNG3_r04_312] (Eterna round: R96, puzzle: Same State NG 3)
band 3

Same thing, different sequence: GUGGUCAGACAUGAGGAUCACCCAUGUGGAAUAAAUAACGUCAAGGAUAUUCAAUAUAGGAUAUAGAAGAAGGUGAGAUUGGUG (Eterna round: R96, puzzle: Same State NG 3)
band 3

Same thing, different sequence: GGAGCCGGUACUGAGGAUAUUCAUAUUAAAACAUGAGGAUCACCCAUGUAGGCCAGAAGGCCUUGGGAGAAGGCAGGCCAGCUCG [Atgexeedri - 4] (Eterna round: R96, puzzle: Same State 2)
band 3

Request: GCUAGAAUUAAUGCCUACAUGAGGAUCACCCAUGUAUGUAGGCAGGAUAUCGUUUGCAAAGCAAACGAGAAGGGCCUUACUAGC [Mat - Same State NG 3 - JL Mod - D28] (Eterna round: R96, puzzle: Same State NG 3)
band 2

Now consider UGGCUCAGACGAGGAUAUAUGUGAUCACAUGAGGAUCACCCAUGUCUCGAGCUUCGGCUCGAGACAUAGAAGGUGUCUGAGCCA [SSNG2/3-C2] (Eterna round: R96, puzzle: Same State NG 2) .
band 2

----------
Provide the recorded apparent KD of MS2 coat protein for the entries that follow.
# Test system: MS2 coat protein
# test-protocol: apparent KD of MS2 coat protein; designed switch direction (-1 OFF switch, 1 ON switch): -1; higher = weaker reporter binding
# test-conditions: input ligand: none
Give your result in nM as a bare value.

Reported apparent KD of MS2 coat protein, sequence AAGUAUCAUGUAGGAUAUGCUAUCCGAACGGUAGCAGAAGGACAUGAGGAUCACCCAUGUUCUCAUCUGUGAGAACAGAUGUCU [Ex NG1 #5] (Eterna round: R96, puzzle: Exclusion NG 1) : ____
22.3

Similarly, AAAAGGCAGGGAGGAUAUGCUUACCUGGGUCGUCUUCAGACAUGAGGAUCACCCAUGUAGUCGACGCAGAAGGCCCUCAAAGCC [Mat - Exclusion NG 2 - Mod of JL - D60] (Eterna round: R96, puzzle: Exclusion NG 2) ?
54.1

Moving on to CCGGCUGCUGUGAGGAUAUGCCUGCGCGCCCGCGGGCAGAAGGCACAUGAGGAUCACCCAUGUCCUGCGGUCCC [salish99_bmx4_r4_119] (Eterna round: R97, puzzle: Brourd's mod of Exclusion 4)
18.2

Follow-up item: AGCUGUGGCCGAGGAUAUACAUGAGGAUCACCCAUGUUACAUAAUUAGGCCGGGUAACCGGCUCCGUAGAAGGCGGUCUCAGCA [Eli eng2 - 004] (Eterna round: R96, puzzle: Exclusion NG 2)
13.7

----------
# Tested on: MS2 coat protein
# test-protocol: apparent KD of MS2 coat protein; designed switch direction (-1 OFF switch, 1 ON switch): 1; higher = weaker reporter binding
# test-conditions: input ligand: microRNA oligo, concentration not stated
I'd appreciate it if you could supply apparent KD of MS2 coat protein values for the items below.

Quick one: apparent KD of MS2 coat protein of AUAAAACACAUGAGGAUCACCCAUGUGGCCGAAGAAGGCACACAGGAUAUCAAGCAACUAAAGCUUGAGAAGGGUGAGACAAAA [Quistera] (Eterna round: R96, puzzle: Same State NG 3) ?
30.7 nM

# repeat for UAUUUAAUCGUAGGAUAUAGAAUGAAAUUUGUACUAGAAGGACGUUACAUGAGGAUCACCCAUGUGGUAAGUGGGACAUAGAUU [JR_SSNG1_Sub035] (Eterna round: R96, puzzle: Same State NG 1)
105 nM

And for AUACUCAUGUAAGGAUAUGCAGCCGUUUCGGCUGCAGAAGGUACUAUAAUACAUGAGGAUCACCCAUGUCUCUCGCAUUGCGAG [JL SSNG1 1.47] (Eterna round: R96, puzzle: Same State NG 1) ?
49.2 nM

AGGAAACAUGAGGAUCACCCAUGUAAAAAUAUGGGAGGAUAUGCGAAAAGAAACAAAGAAGCAGAAGGCCUAAGAA [75%, Ex5 sub 1, 7] (Eterna round: R96, puzzle: Same State 1) , same question.
85.7 nM

What would you report for AUGUAUCGCCUCGAGGAUAUCCUGUCAUGCACAUGAGGAUCACCCAUGUAAGAGCGAGUUUAAUGGGAGAAGGCGAGUUCUCGGU [JR_SS002_Sub1707] (Eterna round: R96, puzzle: Same State 2) ?
78.5 nM

----------
# System: K4 kissing-loop RNA reporter;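 also: bound reporter read as fluorescence of individual clusters on recovered sequencing chips by microscopy, with normalized cluster intensities fitted with a binding model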
# test-protocol: apparent KD of K4 kissing-loop reporter; higher = weaker reporter binding
# test-conditions: Eterna round: R107; input ligand: arginine 13.2 mM
measured-metric: apparent KD of K4 kissing-loop reporter (nM)
Report the value in nM with no unit label.

Fill in the blank: the reported apparent KD of K4 kissing-loop reporter of AAGUGUUCUAGUGAUACCAGACAUUUCAAUUACAUUAAUAUAGCUAAGUGAUGUUUAGCAGUCCCUUGGCAGCACUAUUUCACUA [JR_SSTheophyB_Sub016] is ____.
144

And UAAUAUCCGUCGGCCGCCACUCACCAGUGAUGUUGGAGGAGUGAUGUUCCACGAGUGAUGUUCGAGAGGACCGGGACGGACGAUG [6th] ?
114

How about this sequence: AGAUCUGUAACAGAUACCAGAGGACGAUGAUCGGACAGUGAUGUUAUCUGUCAGUCGUCGCUCCCUUGGCAGCUGUUACAGAUCA [Omei KL Theo B SS B v3]
43.1

UUCUUGAUGGAAACAUCGAGGAUUACUGAUACCAGUAUCGAUAGAUACCCUUGGCAGCAGUAUCGGUGAUCACGAGUGAUGUUCG [Ex Theophylline A K4 11] , same question.
576

# repeat for UGUGUUUACCUGACUCAGUGAUGUUGAGAAGGAGCGUGGGAAACCACAGGUAGGUCGCUCAACCUAAAUUCAGGUGAGCACUAAA
219

Try this sequence too: CGAGUGAUGUUCGAAGAGUUGUUAAGCGAUACCAGCCAGGAAACUGGCCCUUGGCAGCGUAAUAAAUAAAUAAAUAAAUGAUCAC [Theophylline A Exclusion; Euphoria Solution]
438

Next record, please: CCAGCGGGCACGGCCGCCACUCUCUCGAGUGAUGUUUGCGGAGUCAGGCCGGCUCAGUACGUCACGAGGACCGGGUGCAAUUUAC [theeternabot_exclusion_KL_Trp_B_40]
425

Again, but for GGAUAGGACAGAGGAUAUGGCAGUCUACAAAGUAGGCUGAAAUAAAUCCUUGAAUGGAGUGAUGUUCCAGAAGGCUGUCCUAUCG [FmnBX 23 #SwitchBubble #StaticStem #Palindromic]
156

And for AAACCAAUCAGAGGAUAUUCUUUAUUCGACAUAAAUUUCUAUAAAUUGCAGUGAUGUUGCAAUAUAGGAGAAGGCUGAUUGACAA [Exclusion FMN B Gf 12] ?
199

Could you do the same for AUUAAUUUCAGAGGAUAUCGUAAUUUUAUUUAAUUUAUUCAUUUAUGCAGUGAUGUUGCUAAUAUUCGAGAAGGCUGAUUUAUAA [JR_ExcFMNB_Sub007] , please?
121

Same thing, different sequence: UGUACCGAGUCAGGAUAUAGCGUCGAAAGACGAAUCCUAGUGAUGUUAGGGAUCUGCGAAAGCAGUCUAGAAGGGACUUGGUACU [FmnBS 26 A19+U68]
278
